target: JAK2 (JH1domain-catalytic, Y1007F,Y1008F) kinase (Homo sapiens, UniProt O60674, Y1007F/Y1008F); construct: JAK2 (JH1domain-catalytic, Y1007F,Y1008F) kinase was expressed as N-terminal fusion; test: JAK2 JH1 Domain Binding Assay; details: qPCR readout
Sequence (O60674 849-1124 Y1007F/Y1008F limits assumed): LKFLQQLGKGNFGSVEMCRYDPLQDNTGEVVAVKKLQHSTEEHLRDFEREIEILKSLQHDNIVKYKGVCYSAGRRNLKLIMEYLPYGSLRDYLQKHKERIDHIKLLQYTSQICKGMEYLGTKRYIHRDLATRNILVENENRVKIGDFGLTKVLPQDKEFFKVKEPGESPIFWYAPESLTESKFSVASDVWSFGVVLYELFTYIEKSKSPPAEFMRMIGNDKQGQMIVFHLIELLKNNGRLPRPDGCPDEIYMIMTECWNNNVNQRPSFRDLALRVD
pKd: −log10 of the molar value.
Overview of reported pKd across a group of compounds:

Past entries and their recorded results:
INSERT INTO results (compound, experimental_result) VALUES
  ('CNc1nccn2ncc(Oc3cnc4nc(Nc5cc(CN6CC[C@H](N(C)C)C6)cc(C(F)(F)F)c5)n(C)c4c3Cl)c12 [Example I-286]', '7.30 to 8.00'),
  ('CNc1nccn2ncc(Oc3cnc4nc(Nc5cc(C6CCCN6C)cc(C(F)(F)F)c5)n(C)c4c3Cl)c12 (single isomer, unassigned) [Example I-269-a]', '7.30 to 8.00'),
  ('COC1CCN(Cc2cc(Nc3nc4ncc(Oc5cnn6ccncc56)c(Cl)c4n3C)cc(C(F)(F)F)c2)CC1 [Example I-198]', '> 8.00'),
  ('CNc1cn2ncc(Oc3cnc4nc(Nc5nn6c(c5F)COC(C)(C)C6)n(C)c4c3Cl)c2cn1 [Example I-309]', '> 8.00'),
  ('CNc1cn2ncc(Oc3cnc4nc(Nc5cc([C@H]6CCCN6C)cc(C(F)(F)F)c5)n(C)c4c3Cl)c2cn1 (single isomer, unassigned) [Example I-359-a]', '6.00 to 7.30');

Give its pKd value. Item: CNc1nccn2ncc(Oc3cnc4nc(Nc5cc(C(F)(F)F)cn(C)c5=O)n(C)c4c3C#N)c12 [Example I-193]
> 8.00

----------
Documented pKd across a set of compounds
target: JAK2 (JH1domain-catalytic, Y1007F,Y1008F) kinase (Homo sapiens, UniProt O60674, Y1007F/Y1008F); construct: JAK2 (JH1domain-catalytic, Y1007F,Y1008F) kinase was expressed as N-terminal fusion; test: JAK2 JH1 Domain Binding Assay; settings: qPCR readout
pKd: −log10 of the molar value.

Answered cases to consult:
INSERT INTO assay_data (compound, endpoint_label, experimental_result) VALUES
  ('COc1c(Oc2cnn3ccnc(OC)c23)cnc2nc(Nc3cc(C4CC4)cn(C)c3=O)n(C)c12', 'pKd', '> 8.00'),
  ('CNc1nccn2ncc(Oc3cnc4nc(Nc5cc(O[C@@H]6CCN(C)C6)cc(C(F)(F)F)c5)n(C)c4c3Cl)c12', 'pKd', '7.30 to 8.00'),
  ('Cn1c(Nc2cc(C(C)(C)C)n([C@@H]3COC[C@H]3O)n2)nc2ncc(Oc3cnn4ccncc34)c(C#N)c21 (single isomer, unassigned)', 'pKd', '7.30 to 8.00'),
  ('Cn1c(Nc2cc(C(C)(C)C)n([C@H]3CCOC3)n2)nc2ncc(Oc3cnn4ccncc34)c(C#N)c21', 'pKd', '7.30 to 8.00'),
  ('Cn1c(Nc2cc(C3CC3)cn([C@@H]3CC[C@@H]3O)c2=O)nc2ncc(Oc3cnn4ccccc34)c(Cl)c21 (single isomer, unassigned)', 'pKd', '> 8.00');

For the compound CNc1cn2ncc(Oc3cnc4nc(Nc5cc(C(F)(F)F)cn(-c6cccnc6)c5=O)n(C)c4c3Cl)c2cn1 , what pKd is on record?
6.00 to 7.30

Entry CNc1nccn2ncc(Oc3cnc4nc(Nc5cc6n(n5)CCCC6(F)F)n(C)c4c3C#N)c12 has what pKd?
> 8.00

May I ask what pKd has been recorded for CN1CCCCC1COc1cc(Nc2nc3ncc(Oc4cnn5ccncc45)c(Cl)c3n2C)cc(C(F)(F)F)c1 (single isomer, unassigned) [Example I-350-b] ?
> 8.00

What does the record list as pKd for Cc1cc2ncc(Oc3cnc4nc(Nc5cc(C(C)(C)C)n([C@@H]6CCOC6)n5)n(C)c4c3Cl)cn2n1 ?
7.30 to 8.00

Dear colleague, I am looking for the recorded pKd of the following compound: CN1CCC[C@@H]1c1ccc(Nc2nc3ncc(Oc4cnn5ccncc45)c(Cl)c3n2C)cc1C(F)(F)F (single isomer, unassigned)
> 8.00

Request the reported pKd associated with Cn1cc(C2CC2)cc(Nc2nc3ncc(Oc4cnn5ccnc(O[C@H]6CC[C@@H]6O)c45)c(Cl)c3n2C)c1=O (single isomer, unassigned)
> 8.00

Could you tell me which pKd is on file for CNc1nccn2ncc(Oc3cnc4nc(Nc5ccc(CN6CC(F)C6)c(C(F)(F)F)c5)n(C)c4c3Cl)c12 ?
7.30 to 8.00

Return reported pKd; argument: CNc1cn2ncc(Oc3cnc4nc(Nc5cc(C6CC6)nn(C)c5=O)n(C)c4c3Cl)c2cn1
7.30 to 8.00

----------
biological target: JAK2 (JH1domain-catalytic, Y1007F,Y1008F) kinase (Homo sapiens, UniProt O60674, Y1007F/Y1008F); construct: JAK2 (JH1domain-catalytic, Y1007F,Y1008F) kinase was expressed as N-terminal fusion; assay: JAK2 JH1 Domain Binding Assay; settings: qPCR readout
pKd: −log10 of the molar value.
endpoint.label: pKd

INSERT INTO results (compound, endpoint_label, experimental_result) VALUES
  ('Cn1cc(C(F)(F)F)cc(Nc2nc3ncc(Oc4cnn5ccnc(OCCN6CCOCC6)c45)c(Cl)c3n2C)c1=O [Example I-127]', 'pKd', '7.30 to 8.00'),
  ('CNc1nccn2ncc(Oc3cnc4nc(Nc5cc(OC[C@H]6CCCN6C)cc(C(F)(F)F)c5)n(C)c4c3Cl)c12 [Example I-242]', 'pKd', '> 8.00');

Which pKd value belongs to Cn1cc(C2CC2)cc(Nc2nc3ncc(Oc4cnn5ccncc45)c(C(F)F)c3n2C)c1=O [Example I-59] ?
> 8.00

Need pKd of COc1c(Oc2cnc3cnc(C4CC4)n3c2)cnc2nc(Nc3cc(C(C)(C)C)n([C@H]4C[C@H](O)C4)n3)n(C)c12 [Example I-130] , thanks.
7.30 to 8.00

Record request: pKd value, item Cn1c(Nc2cc(C3CC3)cn(CCO)c2=O)nc2ncc(Oc3cnn4ccncc34)c(Cl)c21 [Example I-65]
> 8.00

Entry Cn1c(Nc2ccc(CN3CCCC(F)(F)C3)c(C(F)(F)F)c2)nc2ncc(Oc3cnn4ccncc34)c(Cl)c21 [Example I-174] : reported pKd = ?
7.30 to 8.00

Fill in the blank: the reported pKd of CNc1cn2ncc(Oc3cnc4nc(Nc5cc(C(F)(F)F)cn(C6CC6)c5=O)n(C)c4c3Cl)c2cn1 [Example I-321] is ____.
> 8.00

For the compound shown here, Cn1c(Nc2cc(C(C)(C)C)n([C@H]3CCOC3)n2)nc2ncc(Oc3cnn4cnnc4c3)c(Cl)c21 [Example I-16] , give the reported pKd.
7.30 to 8.00

// query pKd value for entry CN1C(=O)c2cc(Nc3nc4ncc(Oc5cnn6ccncc56)c(Cl)c4n3C)cc(C(F)(F)F)c2C1(C)C [Example I-154]
> 8.00

----------
molecular target: JAK2 (JH1domain-catalytic, Y1007F,Y1008F) kinase (Homo sapiens, UniProt O60674, Y1007F/Y1008F); construct: JAK2 (JH1domain-catalytic, Y1007F,Y1008F) kinase was expressed as N-terminal fusion; test: JAK2 JH1 Domain Binding Assay; conditions: qPCR readout
pKd: −log10 of the molar value.
endpoint.label: pKd

INSERT INTO assay_data (compound, endpoint_label, experimental_result) VALUES
  ('Cn1c(Nc2cc(C(F)(F)F)n(C3CC4(COC4)C3)n2)nc2ncc(Oc3cnc4[nH]ncc4c3)c(C#N)c21 [Example I-330]', 'pKd', '> 8.00'),
  ('CNc1nccn2ncc(Oc3cnc4nc(Nc5ccc(CN6CC(OC)C6)c(C(F)(F)F)c5)n(C)c4c3Cl)c12 [Example I-190]', 'pKd', '7.30 to 8.00'),
  ('Cn1c(Nc2cc(C(C)(C)C)n(C3CC4(COC4)C3)n2)nc2ncc(Oc3cnn4ccncc34)c(Cl)c21 [Example I-49]', 'pKd', '> 8.00'),
  ('Cn1cc(C(F)(F)F)cc(Nc2nc3ncc(Oc4cnn5cc(OCCO)ncc45)c(Cl)c3n2C)c1=O [Example I-397]', 'pKd', '> 8.00'),
  ('CNc1nccn2ncc(Oc3cnc4nc(Nc5cc6c(c(C(F)(F)F)c5)C(C)(C)N(C)C6=O)n(C)c4c3Cl)c12 [Example I-234]', 'pKd', '7.30 to 8.00');

// query pKd value for entry Cn1cc(C(F)(F)F)cc(Nc2nc3ncc(Oc4cnc5[nH]ncc5c4)c(C#N)c3n2C)c1=O [Example I-260]
> 8.00

Look at this compound and give its reported pKd. Cn1c(Nc2ccc(CN3CCOCC3)c(C(F)(F)F)c2)nc2ncc(Oc3cnn4ccncc34)c(Cl)c21 [Example I-149]
> 8.00
